measurement protocol: Inhibition of Enterovirus 71 Shenzhen/120F1/09 capsid infected in human RD cells assessed as reduction in virus-induced cell death after 72 hrs by CCK-8 assay
measured property: pEC50
Entry type: numeric. Quantity: pEC50, the -log10 of concentration in molar units.

O=C1N(CCCCc2cc3cc(-c4ccc(Cl)cc4)ccc3o2)CCN1c1ccncc1 :: 5.96
O=C1CC(CCCCN2CCN(c3ccncc3)C2=O)Oc2ccc(-c3ccc(Cl)cc3)cc21 (configuration not stated) :: 6.27

Provide pEC50 value for the following molecule: `CCO/N=C1\CCCc2cc(OCCCCCN3CCN(c4ccnc(N)c4)S3(=O)=O)ccc21`
6.51

Give pEC50 for the following molecule: `Nc1cc(N2CCN(CCCCCOc3ccc(-c4ccc(Cl)cc4)cc3)S2(=O)=O)ccn1`
7.92

Identify measured pEC50 associated with CCO/N=C/c1ccc(OCCC(C)CCN2CCN(c3ccnc(N)c3)C2=O)cc1 (configuration not stated)
10.52

Quote pEC50 reported for O=C1N(CCCCC2CCc3cc(-c4ccc(Cl)cc4)ccc3O2)CCN1c1ccncc1 (configuration not stated) please.
7.32

Supply measured pEC50 of `O=C1N(CCCCc2nc3cc(-c4ccc(Cl)cc4)ccc3o2)CCN1c1ccncc1` in your reply.
5.96

Indicate its recorded pEC50; the molecule in question is `CCc1noc2cc(OCCCCCN3CCN(c4ccnc(N)c4)S3(=O)=O)ccc12`
6.45

Complete the entry with pEC50 for `O=C1CN(c2ccncc2)CCN1CCCCCOc1ccc(-c2ccc(Cl)cc2)cc1`
6.74

---

measurement protocol: Inhibition of Enterovirus 71 Shenzhen/120F1/09 capsid infected in human RD cells assessed as reduction in virus-induced cell death after 72 hrs by CCK-8 assay
Entries whose EC50 is below 90 nM take TRUE; entries at or above 90 nM take FALSE.

Some entries whose results are on file:
O=C1CN(CCCCCOc2ccc(-c3ccc(Cl)cc3)cc2)CCN1c1ccncc1 :: FALSE
CCO/N=C(\C)c1ccc(OCCCCCN2CCN(c3ccnc(N)c3)S2(=O)=O)cc1 :: FALSE
CCn1ccc2cc(OCCCCCN3CCN(c4ccnc(N)c4)S3(=O)=O)ccc21 :: FALSE
S=C1N(CCCCCOc2ccc(-c3ccc(Cl)cc3)cc2)CCN1c1ccncc1 :: FALSE
CCn1ncc2cc(OCCCCCN3CCN(c4ccnc(N)c4)S3(=O)=O)ccc21 :: FALSE
CCO/N=C1\CCc2cc(OCCCCCN3CCN(c4ccnc(N)c4)S3(=O)=O)ccc21 :: TRUE
CCO/N=C(\CC)c1ccc(OCCCCCN2CCN(c3ccnc(N)c3)S2(=O)=O)cc1 :: FALSE
O=S1(=O)N(CCCCCOc2ccc(-c3ccc(Cl)cc3)cc2)CCN1c1ccncc1 :: FALSE

Now look at this entry.
In the record for `CCO/N=C/c1ccc(OCCCCCN2CCN(c3ccnc(N)c3)S2(=O)=O)cc1` , is EC50 less than 90 nM?
TRUE

---

measurement protocol: Inhibition of Enterovirus 71 Shenzhen/120F1/09 capsid infected in human RD cells assessed as reduction in virus-induced cell death after 72 hrs by CCK-8 assay
pEC50: −log10 of the molar value.
Known pEC50 of a selection of molecules

NC(=O)c1ncn([C@@H]2O[C@H](CO)[C@@H](O)[C@H]2O)n1 [Tribavirin] :: < 4.00

Identify measured pEC50 associated with `O=C1C(=O)N(c2ccncc2)CCN1CCCCCOc1ccc(-c2ccc(Cl)cc2)cc1`
< 6.00

Answer with the recorded pEC50 for the molecule listed here: `Cc1cc(CCCOc2c(C)cc(-c3noc(C(F)(F)F)n3)cc2C)on1`
< 4.00

Sourced from BindingDB's records for doi:10.1021/acsmedchemlett.7b00188
